Values compiled from PubChem BioAssay.

- testName: PSAC antagonists in infected red cells, primary screen, cell-based, P. falciparum Indochina, OD700, 1 h (AID 1154)
- condition: P. falciparum Indochina infected RBC osmotic lysis, higher = more signal, called active from +8 up or from −8 down
Each entry gets n if its z-score stays under 4, and y if its z-score is 4 or above.

See these solved cases before continuing.
>  <compound>
CCCC[C@@H]1C[C@H]1[C@@H](NC(=O)c1cccs1)c1ccc(Cl)cc1

>  <classLabel>
n

$$$$
>  <compound>
COCCOC(=O)N1C(=O)[C@@]2(c3cc(C#CCNC(N)=O)ccc31)[C@H](C(=O)N1CCCCCCC1)[C@H]1C(=O)O[C@H](c3ccccc3)[C@H](c3ccccc3)N1[C@@H]2c1ccccc1OCCO

>  <classLabel>
n

$$$$
>  <compound>
C=C(CCCC)/C(=C/C[C@@H](OC(=O)c1ccncc1)c1ccc(CO)o1)c1cnc2ccccc2c1

>  <classLabel>
y

$$$$

Data request: Decide: is the reported value of z-score for "COc1cc2c(cc1OC)CN(C(=O)[C@H]1[C@@H]3C(=O)O[C@@H](c4ccccc4)[C@@H](c4ccccc4)N3[C@@H](c3ccc(O)cc3)[C@]13C(=O)Nc1ccc(C#CC4(O)CCCCCC4)cc13)CC2" equal to or greater than 4?
Data returned: n

Data request: Is reported z-score greater than or equal to 4 here: "CSCC[C@@H]1NC(=O)CC=C[C@@H](C)COC(=O)[C@H](CCSC)NC(=O)CC=C[C@@H](C)COC1=O"
Data returned: n

Data request: Tell me whether z-score is at least 4 here: "O=C/C=C/c1ccc(/C=C/c2ccccc2)cc1"
Data returned: n

Data request: Given the entry "C=C(COC)/C(=C/C[C@@H](OC(=O)c1ccncc1)c1ccc(OCCO)cc1)c1cc(C(=O)OC)ccc1OC" , answer whether its z-score meets or surpasses 4.
Data returned: y

Data request: Threshold query (z-score >= 4) on O=C1OCCC/C=C\[C@H]2OC34C=CCN(CCN5CCOCC5)C(=O)[C@H]3N(CCCCCO)C(=O)[C@@H]4C12 (stereo partly drawn)
Data returned: n
